From: patent US20050234046A1

- targetOfAssay: PPAR alpha (Homo sapiens, UniProt Q07869)
- Sequence (Q07869 239-466 limits assumed): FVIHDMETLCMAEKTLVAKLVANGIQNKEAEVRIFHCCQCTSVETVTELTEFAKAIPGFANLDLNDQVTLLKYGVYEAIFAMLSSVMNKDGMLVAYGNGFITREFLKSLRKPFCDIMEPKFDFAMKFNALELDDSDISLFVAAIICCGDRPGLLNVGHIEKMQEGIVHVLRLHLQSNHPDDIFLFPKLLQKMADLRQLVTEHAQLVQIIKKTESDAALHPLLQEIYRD
- assay: Transient transfection (transactivation) assay in CV-1 cells, GAL4-PPAR chimera, luciferase reporter
measuredEndpoint: EC50

As a guide, the following entries are already answered.
[
  {
    "compound": "Cc1ccc(S(=O)(=O)N2CCN(c3ccc(OC(F)(F)F)cc3)[C@@H](C)C2)cc1CC(=O)O",
    "EC50": "< 5 µM"
  },
  {
    "compound": "COC(=O)[C@H]1CN(c2ccc(C(F)(F)F)cn2)CCN1S(=O)(=O)c1ccc(C)c(CC(=O)O)c1",
    "EC50": "> 100 µM"
  }
]

// query EC50 value for entry C[C@H]1CN(S(=O)(=O)c2cccc(CC(=O)O)c2)CCN1c1ccc(C(F)(F)F)c(F)c1 < 5 µM

Cc1ccc(S(=O)(=O)N2CCN(c3ccc(C(F)(F)F)cn3)[C@@H](C)[C@H]2C)cc1CC(=O)O (mixture of isomers) ? 5 to 100 µM

Can you handle Cc1cc(CC(=O)O)cc(S(=O)(=O)N2CCN(c3ccc(OC(F)(F)F)cc3)CC2)c1 next? 5 to 100 µM

Same read-out for Cc1ccc(CC(=O)O)cc1S(=O)(=O)N1CCN(c2cnccn2)CC1 ? > 100 µM

Now consider O=C(O)Cc1cccc(S(=O)(=O)N2CCN(Cc3ccc(F)cc3)CC2)c1 . > 100 µM

Now this one: C[C@@H]1CN(c2ccc(OC(F)(F)F)cc2)C[C@H](C)N1S(=O)(=O)c1cc(CC(=O)O)cc(C(F)(F)F)c1 5 to 100 µM

Ok, now COC(=O)[C@H]1CN(S(=O)(=O)c2ccc(C)c(CC(=O)O)c2)CCN1c1ccc(C(F)(F)F)cn1 > 100 µM

Also need Cc1ccc(S(=O)(=O)N2CCN(c3ccc(C#N)cn3)CC2)cc1CC(=O)O , thanks. > 100 µM

And then Cc1ccc(S(=O)(=O)N2CCN(c3ccc(C(C)C)cc3)CC2)cc1CC(=O)O , what is it? < 5 µM

Continue with N#Cc1ccc(N2CCN(S(=O)(=O)c3cccc(CC(=O)O)c3)CC2)cc1 > 100 µM

Cool, now Cc1ccc(S(=O)(=O)N2CCN(c3ccc(C(F)(F)F)cn3)[C@@H](C)C2)cc1CC(=O)O < 5 µM

Further, for C[C@@H]1CN(c2ccc(OC(F)(F)F)cc2)C[C@H](C)N1S(=O)(=O)c1ccc(O)c(CC(=O)O)c1 ? > 100 µM

Here is the next compound: Cc1ccc(S(=O)(=O)N2CCN(c3nc(Cl)ncc3F)CC2)cc1CC(=O)O > 100 µM

Likewise for Cc1ccc(S(=O)(=O)N2CCN(c3ccc4occc4c3)CC2C)cc1CC(=O)O (stereo not shown) ? > 100 µM

Subsequent entry: Cc1cc(S(=O)(=O)N2[C@H](C)CN(c3ccc(OC(F)(F)F)cc3)C[C@@H]2C)cc(CC(=O)O)c1Br 5 to 100 µM

Can you handle Cc1ccc(S(=O)(=O)N2CCCN(c3ccncc3)CC2)cc1CC(=O)O next? > 100 µM

----------
- targetOfAssay: PPAR delta (Homo sapiens)
- Sequence (Q03181 211-439 limits assumed): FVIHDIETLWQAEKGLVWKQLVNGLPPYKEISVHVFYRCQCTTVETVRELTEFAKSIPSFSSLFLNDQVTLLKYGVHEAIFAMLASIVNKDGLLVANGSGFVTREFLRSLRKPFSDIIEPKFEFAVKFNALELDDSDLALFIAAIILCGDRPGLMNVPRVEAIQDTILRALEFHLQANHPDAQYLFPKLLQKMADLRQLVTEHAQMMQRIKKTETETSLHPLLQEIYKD
- assay: Transient transfection (transactivation) assay in CV-1 cells, GAL4-PPAR chimera, luciferase reporter
List of EC50 values.

[
  {
    "molecule": "Cc1ccc(CC(=O)O)cc1S(=O)(=O)N1CCN(Cc2ccc(F)cc2)CC1 [Example 154]",
    "measuredResult": "> 100 µM"
  }
]

Given the entry O=C(O)Cc1cccc(S(=O)(=O)N2CCN(c3cccc(Br)c3)CC2)c1 [Example 125] , report its measured EC50. 5 to 100 µM

Do the same for Cc1ccc(S(=O)(=O)N2C[C@@H]3C[C@H]2CN3c2cccc(F)c2)cc1CC(=O)O [Example 10] please 5 to 100 µM

Try this molecule next: O=C(O)Cc1cccc(S(=O)(=O)N2CCN(C3CCCCC3)CC2)c1 [Example 130] > 100 µM

Now consider Cc1ccc(S(=O)(=O)N2CCN(c3cccc(C(F)(F)F)n3)CC2)cc1CC(=O)O [Example 36] . < 5 µM

What about this molecule? Cc1cccc(N2CCN(S(=O)(=O)c3ccc(C)c(CC(=O)O)c3)CC2C)c1 (stereo not shown) [Example 177] 5 to 100 µM

Input Cc1ccc(S(=O)(=O)N2CCN(c3ccc(C(F)(F)F)cc3F)CC2)cc1CC(=O)O [Example 33] < 5 µM

And for CCOc1ccccc1N1CCN(S(=O)(=O)c2cccc(CC(=O)O)c2)CC1 [Example 142] ? > 100 µM

Item: Cc1ccc(S(=O)(=O)N2CCN(c3ccc(F)cc3F)CC2)cc1CC(=O)O [Example 180] 5 to 100 µM

Try this molecule next: O=C(O)Cc1cc(Br)cc(S(=O)(=O)N2CCN(c3ccc(C(F)(F)F)cn3)CC2)c1 [Example 199] < 5 µM

How about C[C@@H]1CN(c2ccc(OC(F)(F)F)cc2)C[C@H](C)N1S(=O)(=O)c1cccc(CC(=O)O)c1 [Example 109] ? < 5 µM

Next record, please: Cc1ccc(S(=O)(=O)N2CCN(c3ccc(C(F)(F)F)c(F)c3)[C@@H](C)C2)cc1CC(=O)O [Example 90] < 5 µM

Try this molecule too: O=C(O)Cc1cccc(S(=O)(=O)N2CCN(C(c3ccccc3)c3ccc(Cl)cc3)CC2)c1 (stereo not shown) [Example 134] > 100 µM

Entry to check: Cc1ccc(S(=O)(=O)N2CCCN(c3ccc(C(F)(F)F)cn3)CC2)cc1CC(=O)O [Example 8] < 5 µM

Here is the next molecule: C[C@H]1CN(S(=O)(=O)c2cccc(CC(=O)O)c2)CCN1c1ccc(OC(F)(F)F)cc1 [Example 221] < 5 µM

Would you mind doing Cc1ccc(S(=O)(=O)N2CCN(c3ncc(C(F)(F)F)cn3)CC2)cc1CC(=O)O [Example 59] as well? < 5 µM
